Molecular target: 5-hydroxytryptamine receptor 6 (Homo sapiens, UniProt P50406)
Sequence (P50406 whole entry): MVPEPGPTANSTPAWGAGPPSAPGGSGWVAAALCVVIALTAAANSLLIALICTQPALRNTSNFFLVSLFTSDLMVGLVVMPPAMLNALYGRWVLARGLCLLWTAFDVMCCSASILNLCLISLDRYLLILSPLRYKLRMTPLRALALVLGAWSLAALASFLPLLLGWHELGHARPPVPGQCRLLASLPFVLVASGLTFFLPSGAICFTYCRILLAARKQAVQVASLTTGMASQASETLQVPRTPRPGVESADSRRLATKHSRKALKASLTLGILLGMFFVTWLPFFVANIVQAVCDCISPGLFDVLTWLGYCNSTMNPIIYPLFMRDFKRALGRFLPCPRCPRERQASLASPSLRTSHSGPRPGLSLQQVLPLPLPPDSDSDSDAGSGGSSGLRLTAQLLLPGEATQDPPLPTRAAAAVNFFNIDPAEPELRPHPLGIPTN
Note to self: class labels come from recorded Ki, ranges listed here: class 0 (below 7 nM), class 1 (7 nM to below 20 nM), class 2 (20 nM or more)

Quick check: band for O=S(=O)(c1cccs1)n1cc(C2CCCNC2)c2ccccc21 (stereo not drawn)
class 1

Class label required: "O=S(=O)(c1ccccc1)n1cc(C2=CCCNC2)c2ccccc21"
class 0

Field: class (Ki) — entry: "O=S(=O)(c1ccc(Cl)s1)n1cc(C[C@@H]2CCCN2)c2ccccc21"
class 2

Which category does the recorded Ki put "O=S(=O)(c1ccccc1Br)n1cc(C[C@@H]2CCCN2)c2ccccc21" in?
class 2

Which class is correct for the following compound? "O=S(=O)(c1cccc(F)c1)n1cc(C2=CCCNC2)c2ccccc21"
class 1

Exam item: assign "COc1ccc(S(=O)(=O)n2cc(C3=CCCNC3)c3ccccc32)cc1" to the correct category.
class 1

State the class of the compound shown: Cc1c(S(=O)(=O)n2cc(C3CCCNC3)c3ccccc32)sc2ccc(Cl)cc12 (stereo not drawn)
class 2

Class label required: "O=S(=O)(c1ccc(Cl)cc1)n1cc(C2=CCCNC2)c2ccccc21"
class 2

GET /class?item= O=S(=O)(c1ccccc1)n1cc(C2CCCNC2)c2ccccc21 (single isomer, unassigned; enantiomer 1)
class 0

Band assignment needed for O=S(=O)(c1ccccc1)n1cc(C2CCCNC2)c2ccccc21 (stereo in doubt) please.
class 0

Exam item: assign "CN1CCC[C@H]1Cc1cn(S(=O)(=O)c2ccc(Cl)s2)c2ccccc12" to the correct category.
class 0

In plain terms, what class is "COc1ccc(S(=O)(=O)n2cc(C[C@@H]3CCCN3C)c3ccccc32)cc1OC" ?
class 1

Measured values drawn from ChEMBL document CHEMBL1143466 for this set.
